# experiment summary: Antioxidant activity assessed as DPPH scavenging activity at 10 ug/ml after 30 min by UV-visible spectrophotometry
# Assay type: functional

| compound | endpoint unit | Activity |
| --- | --- | --- |
| Clc1ccc(C2=NN(c3ccccc3)C(c3ccc(Cl)cc3)C2)cc1 (stereo not drawn) | % | 31.8 |
| Fc1ccc(C2=NN(c3ccccc3)C(c3ccc(F)cc3)C2)cc1 (stereo not drawn) | % | 51.2 |
| c1ccc(C2=NN(c3ccccc3)C(c3ccccc3)C2)cc1 (stereo not drawn) | % | 23.1 |
| Cc1ccc(C2=NN(c3ccccc3)C(c3ccc(C)cc3)C2)cc1 (stereo not drawn) | % | 22.4 |
| O=C1O[C@H]([C@@H](O)CO)C(O)=C1O | % | 69.2 |
| COc1ccc(C2=NN(c3ccccc3)C(c3ccc(OC)cc3)C2)cc1 (stereo not drawn) | % | 39.6 |
| c1ccc(-c2ccc(C3=NN(c4ccccc4)C(c4ccc(-c5ccccc5)cc4)C3)cc2)cc1 (stereo not drawn) | % | 18.2 |
| Brc1ccc(C2=NN(c3ccccc3)C(c3ccc(Br)cc3)C2)cc1 (stereo not drawn) | % | 40.3 |

---

# Test system: Streptococcus pyogenes
# experiment summary: Antimicrobial activity against Streptococcus pyogenes after 24 hr by micro dilution method
# Format: functional
This listing pairs compounds with measured MIC.

| compound | tested system | MIC |
| --- | --- | --- |
| COc1ccc(C2=NN(c3ccccc3)C(c3ccc(OC)cc3)C2)cc1 (configuration not stated) | Streptococcus pyogenes | 40 µg/mL |
| c1ccc(C2=NN(c3ccccc3)C(c3ccccc3)C2)cc1 (configuration not stated) | Streptococcus pyogenes | 40 µg/mL |
| Brc1ccc(C2=NN(c3ccccc3)C(c3ccc(Br)cc3)C2)cc1 (configuration not stated) | Streptococcus pyogenes | 40 µg/mL |
| Fc1ccc(C2=NN(c3ccccc3)C(c3ccc(F)cc3)C2)cc1 (configuration not stated) | Streptococcus pyogenes | 30 µg/mL |
| Cc1ccc(C2=NN(c3ccccc3)C(c3ccc(C)cc3)C2)cc1 (configuration not stated) | Streptococcus pyogenes | 20 µg/mL |
| c1ccc(-c2ccc(C3=NN(c4ccccc4)C(c4ccc(-c5ccccc5)cc4)C3)cc2)cc1 (configuration not stated) | Streptococcus pyogenes | 40 µg/mL |
| Clc1ccc(C2=NN(c3ccccc3)C(c3ccc(Cl)cc3)C2)cc1 (configuration not stated) | Streptococcus pyogenes | 30 µg/mL |

---

Activity overview
# Test system: Mus musculus
# experiment summary: Analgesic activity in Mus musculus Swiss albino (mouse) assessed as protection against acetic acid-induced writhing at 100 mg/kg, po administered 1 hr prior challenge measured after 5 min of challenge for 20 min
# Assay type: functional

| compound | Activity (%) |
| --- | --- |
| c1ccc(-c2ccc(C3=NN(c4ccccc4)C(c4ccc(-c5ccccc5)cc4)C3)cc2)cc1 (centres undefined) | 53.1 |
| Clc1ccc(C2=NN(c3ccccc3)C(c3ccc(Cl)cc3)C2)cc1 (centres undefined) | 50 |
| c1ccc(C2=NN(c3ccccc3)C(c3ccccc3)C2)cc1 (centres undefined) | 57.8 |
| Fc1ccc(C2=NN(c3ccccc3)C(c3ccc(F)cc3)C2)cc1 (centres undefined) | 49.65 |
